system: RXRa DBDmut IVT, anti-RXR (DBD mutation: RXRa K156A/R161A, NR concentration 90 nM); assay: PBM binding z-score (relative to random genomic background probes); higher = stronger binding; sequences stand for … in GC…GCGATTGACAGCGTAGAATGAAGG
Catalogue of sequences with associated PBM binding z-score

| monomer_sequence | test_target | PBM binding z-score |
| --- | --- | --- |
| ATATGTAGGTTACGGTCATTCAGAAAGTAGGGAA | RXRa DBDmut IVT, anti-RXR (DBD mutation: RXRa K156A/R161A, NR concentration 90 nM) | 0.852 |
| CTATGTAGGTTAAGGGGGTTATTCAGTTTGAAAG | RXRa DBDmut IVT, anti-RXR (DBD mutation: RXRa K156A/R161A, NR concentration 90 nM) | 1.43 |
| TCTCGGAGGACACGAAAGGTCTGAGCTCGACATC | RXRa DBDmut IVT, anti-RXR (DBD mutation: RXRa K156A/R161A, NR concentration 90 nM) | 0.831 |
| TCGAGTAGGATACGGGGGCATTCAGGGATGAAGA | RXRa DBDmut IVT, anti-RXR (DBD mutation: RXRa K156A/R161A, NR concentration 90 nM) | 1.24 |
| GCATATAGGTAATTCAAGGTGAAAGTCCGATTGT | RXRa DBDmut IVT, anti-RXR (DBD mutation: RXRa K156A/R161A, NR concentration 90 nM) | 0.583 |
| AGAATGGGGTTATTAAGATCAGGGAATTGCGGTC | RXRa DBDmut IVT, anti-RXR (DBD mutation: RXRa K156A/R161A, NR concentration 90 nM) | 2.11 |
| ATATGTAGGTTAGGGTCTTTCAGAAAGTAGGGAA | RXRa DBDmut IVT, anti-RXR (DBD mutation: RXRa K156A/R161A, NR concentration 90 nM) | 0.741 |
| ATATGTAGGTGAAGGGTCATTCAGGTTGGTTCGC | RXRa DBDmut IVT, anti-RXR (DBD mutation: RXRa K156A/R161A, NR concentration 90 nM) | 2.06 |
| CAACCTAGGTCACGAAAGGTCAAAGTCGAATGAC | RXRa DBDmut IVT, anti-RXR (DBD mutation: RXRa K156A/R161A, NR concentration 90 nM) | 2.31 |
| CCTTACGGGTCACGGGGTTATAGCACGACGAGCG | RXRa DBDmut IVT, anti-RXR (DBD mutation: RXRa K156A/R161A, NR concentration 90 nM) | 1.77 |
| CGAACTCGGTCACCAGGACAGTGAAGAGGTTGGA | RXRa DBDmut IVT, anti-RXR (DBD mutation: RXRa K156A/R161A, NR concentration 90 nM) | 0.319 |
| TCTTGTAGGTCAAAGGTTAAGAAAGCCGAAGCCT | RXRa DBDmut IVT, anti-RXR (DBD mutation: RXRa K156A/R161A, NR concentration 90 nM) | 1.98 |
| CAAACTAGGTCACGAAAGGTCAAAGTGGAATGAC | RXRa DBDmut IVT, anti-RXR (DBD mutation: RXRa K156A/R161A, NR concentration 90 nM) | 2.4 |
| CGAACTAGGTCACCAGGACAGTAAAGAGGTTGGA | RXRa DBDmut IVT, anti-RXR (DBD mutation: RXRa K156A/R161A, NR concentration 90 nM) | 1.79 |
| TCTAGCTGGTCACGGAGGTCACACACGACGGGTA | RXRa DBDmut IVT, anti-RXR (DBD mutation: RXRa K156A/R161A, NR concentration 90 nM) | 0.665 |
| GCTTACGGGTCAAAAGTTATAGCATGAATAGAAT | RXRa DBDmut IVT, anti-RXR (DBD mutation: RXRa K156A/R161A, NR concentration 90 nM) | 1.93 |
| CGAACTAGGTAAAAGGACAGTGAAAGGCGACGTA | RXRa DBDmut IVT, anti-RXR (DBD mutation: RXRa K156A/R161A, NR concentration 90 nM) | -0.478 |
| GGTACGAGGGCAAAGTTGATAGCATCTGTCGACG | RXRa DBDmut IVT, anti-RXR (DBD mutation: RXRa K156A/R161A, NR concentration 90 nM) | 2.49 |
| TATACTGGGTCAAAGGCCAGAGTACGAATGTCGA | RXRa DBDmut IVT, anti-RXR (DBD mutation: RXRa K156A/R161A, NR concentration 90 nM) | 0.958 |
| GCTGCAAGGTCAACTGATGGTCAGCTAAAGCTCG | RXRa DBDmut IVT, anti-RXR (DBD mutation: RXRa K156A/R161A, NR concentration 90 nM) | 3.75 |
| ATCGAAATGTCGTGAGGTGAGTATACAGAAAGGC | RXRa DBDmut IVT, anti-RXR (DBD mutation: RXRa K156A/R161A, NR concentration 90 nM) | -0.3 |
| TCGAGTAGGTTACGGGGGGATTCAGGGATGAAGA | RXRa DBDmut IVT, anti-RXR (DBD mutation: RXRa K156A/R161A, NR concentration 90 nM) | 2.47 |
| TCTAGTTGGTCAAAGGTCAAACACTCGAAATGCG | RXRa DBDmut IVT, anti-RXR (DBD mutation: RXRa K156A/R161A, NR concentration 90 nM) | 2.11 |
| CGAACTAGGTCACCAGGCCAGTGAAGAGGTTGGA | RXRa DBDmut IVT, anti-RXR (DBD mutation: RXRa K156A/R161A, NR concentration 90 nM) | 1.05 |
| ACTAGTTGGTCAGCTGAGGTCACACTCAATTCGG | RXRa DBDmut IVT, anti-RXR (DBD mutation: RXRa K156A/R161A, NR concentration 90 nM) | 1.5 |
| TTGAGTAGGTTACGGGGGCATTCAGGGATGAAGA | RXRa DBDmut IVT, anti-RXR (DBD mutation: RXRa K156A/R161A, NR concentration 90 nM) | 2.36 |
| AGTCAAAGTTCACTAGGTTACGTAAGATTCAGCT | RXRa DBDmut IVT, anti-RXR (DBD mutation: RXRa K156A/R161A, NR concentration 90 nM) | 4.29 |
| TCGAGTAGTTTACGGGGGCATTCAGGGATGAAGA | RXRa DBDmut IVT, anti-RXR (DBD mutation: RXRa K156A/R161A, NR concentration 90 nM) | 2.09 |
| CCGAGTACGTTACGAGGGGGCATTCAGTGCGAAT | RXRa DBDmut IVT, anti-RXR (DBD mutation: RXRa K156A/R161A, NR concentration 90 nM) | 3.95 |
| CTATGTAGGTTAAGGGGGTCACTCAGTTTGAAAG | RXRa DBDmut IVT, anti-RXR (DBD mutation: RXRa K156A/R161A, NR concentration 90 nM) | 1.85 |
| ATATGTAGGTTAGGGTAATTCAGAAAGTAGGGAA | RXRa DBDmut IVT, anti-RXR (DBD mutation: RXRa K156A/R161A, NR concentration 90 nM) | 0.835 |
| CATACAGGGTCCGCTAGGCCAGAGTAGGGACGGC | RXRa DBDmut IVT, anti-RXR (DBD mutation: RXRa K156A/R161A, NR concentration 90 nM) | -0.419 |
| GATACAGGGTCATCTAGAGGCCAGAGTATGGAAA | RXRa DBDmut IVT, anti-RXR (DBD mutation: RXRa K156A/R161A, NR concentration 90 nM) | 3.39 |
| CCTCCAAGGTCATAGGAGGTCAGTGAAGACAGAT | RXRa DBDmut IVT, anti-RXR (DBD mutation: RXRa K156A/R161A, NR concentration 90 nM) | 3.01 |
| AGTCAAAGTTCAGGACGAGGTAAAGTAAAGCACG | RXRa DBDmut IVT, anti-RXR (DBD mutation: RXRa K156A/R161A, NR concentration 90 nM) | 3.04 |
| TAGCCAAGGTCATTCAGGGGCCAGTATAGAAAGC | RXRa DBDmut IVT, anti-RXR (DBD mutation: RXRa K156A/R161A, NR concentration 90 nM) | 4.05 |
| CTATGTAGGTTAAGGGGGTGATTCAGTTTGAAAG | RXRa DBDmut IVT, anti-RXR (DBD mutation: RXRa K156A/R161A, NR concentration 90 nM) | 1.42 |
| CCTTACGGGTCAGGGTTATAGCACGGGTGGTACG | RXRa DBDmut IVT, anti-RXR (DBD mutation: RXRa K156A/R161A, NR concentration 90 nM) | -0.999 |
| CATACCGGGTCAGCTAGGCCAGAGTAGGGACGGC | RXRa DBDmut IVT, anti-RXR (DBD mutation: RXRa K156A/R161A, NR concentration 90 nM) | -0.0713 |
| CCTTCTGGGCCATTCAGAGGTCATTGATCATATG | RXRa DBDmut IVT, anti-RXR (DBD mutation: RXRa K156A/R161A, NR concentration 90 nM) | 1.38 |
| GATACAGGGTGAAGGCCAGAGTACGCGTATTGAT | RXRa DBDmut IVT, anti-RXR (DBD mutation: RXRa K156A/R161A, NR concentration 90 nM) | -0.695 |
| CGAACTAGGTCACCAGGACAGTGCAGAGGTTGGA | RXRa DBDmut IVT, anti-RXR (DBD mutation: RXRa K156A/R161A, NR concentration 90 nM) | 1.53 |
| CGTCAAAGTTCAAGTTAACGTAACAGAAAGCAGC | RXRa DBDmut IVT, anti-RXR (DBD mutation: RXRa K156A/R161A, NR concentration 90 nM) | 4.89 |
| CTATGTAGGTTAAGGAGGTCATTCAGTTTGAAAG | RXRa DBDmut IVT, anti-RXR (DBD mutation: RXRa K156A/R161A, NR concentration 90 nM) | 1.97 |
| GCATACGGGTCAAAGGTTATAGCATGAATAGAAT | RXRa DBDmut IVT, anti-RXR (DBD mutation: RXRa K156A/R161A, NR concentration 90 nM) | 2.46 |
| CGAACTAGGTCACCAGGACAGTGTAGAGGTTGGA | RXRa DBDmut IVT, anti-RXR (DBD mutation: RXRa K156A/R161A, NR concentration 90 nM) | 1.65 |
| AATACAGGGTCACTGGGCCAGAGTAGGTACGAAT | RXRa DBDmut IVT, anti-RXR (DBD mutation: RXRa K156A/R161A, NR concentration 90 nM) | 2.35 |
| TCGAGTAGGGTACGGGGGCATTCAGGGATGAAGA | RXRa DBDmut IVT, anti-RXR (DBD mutation: RXRa K156A/R161A, NR concentration 90 nM) | 2.6 |
| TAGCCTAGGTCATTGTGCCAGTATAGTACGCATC | RXRa DBDmut IVT, anti-RXR (DBD mutation: RXRa K156A/R161A, NR concentration 90 nM) | 1.9 |
| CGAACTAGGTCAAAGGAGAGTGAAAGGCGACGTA | RXRa DBDmut IVT, anti-RXR (DBD mutation: RXRa K156A/R161A, NR concentration 90 nM) | 1.62 |
| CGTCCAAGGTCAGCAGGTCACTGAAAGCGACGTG | RXRa DBDmut IVT, anti-RXR (DBD mutation: RXRa K156A/R161A, NR concentration 90 nM) | 2.86 |

// provenance: the supplement of paper PMC6555819
